experiment: Cytotoxicity against mock-infected MDBK cells assessed as reduction in cell viability after 96 hrs by MTT assay; format: cell-based, Bos taurus; settings: cattle
Overview of reported CC50 at 96 h across a group of compounds:

CN1C=C(/N=N/c2cccc([N+](=O)[O-])c2)CCC1 = > 100 µM

stdin: Fill blank: measured CC50 at 96 h of the compound O=[N+]([O-])c1ccc(/N=N\C2=C3CCCCN3CCC2)cc1 is ____.
stdout: > 100 µM

stdin: Fill blank: measured CC50 at 96 h of the compound CN1CCC/C1=C\N=N\c1cccc([N+](=O)[O-])c1 is ____.
stdout: > 100 µM

----------
Overview of reported EC50 across a group of molecules:
system: Coxsackievirus B2; experiment: Antiviral activity against CVB2 infected in Vero76 cells assessed as reduction in virus plaque formation after 4 days by MTT assay; format: functional, organism-based; conditions: Enterovirus B, Vero 76, 96 h

Consider the worked cases shown below.
CN1CCC/C1=C\N=N\c1cccc([N+](=O)[O-])c1 = > 100 µM
CN1C=C(/N=N/c2ccccc2Cl)CCC1 = > 100 µM
CN1C=C(/N=N/c2cccc([N+](=O)[O-])c2)CCC1 = > 100 µM

stdin: Fill blank: measured EC50 of the molecule CN1CCC/C1=C\N=N\c1cc(C(F)(F)F)cc(C(F)(F)F)c1 is ____.
stdout: > 93 µM

stdin: Fill blank: measured EC50 of the molecule c1ccc2c(/N=N\C3=C4CCCCN4CCC3)cccc2c1 is ____.
stdout: > 90 µM

----------
tested on: Coxsackievirus B2; assay: Antiviral activity against CVB2 infected in Vero76 cells assessed as reduction in virus plaque formation after 4 days by MTT assay; assay type: functional, organism-based; details: Enterovirus B, Vero 76, 96 h
Overview of reported log10 of EC50 across a group of molecules:
Reminder: these figures are log10 of reported EC50, in µM before transformation.

O=[N+]([O-])c1cccc(/N=N\C2=C3CCCCN3CCC2)c1 = 1.85
Fc1ccc(/N=N\C2=C3CCCCN3CCC2)cc1C(F)(F)F = 1.65

stdin: Fill blank: measured log10 of EC50 of the molecule Clc1ccccc1N1CCN(/C=C/N=N/c2ccccc2)CC1 is ____.
stdout: 0.70

----------
tested on: Coxsackievirus B2; test: Antiviral activity against CVB2 infected in Vero76 cells assessed as reduction in virus plaque formation after 4 days by MTT assay; format: functional, organism-based; conditions: Enterovirus B, Vero 76, 96 h
pEC50: −log10 of the molar value.
assay_metric: pEC50

Consider the worked cases shown below.
CN1CCC/C1=C\N=N\c1c(F)c(F)c(F)c(F)c1F = < 4.00
O=c1cnn([C@@H]2O[C@H](CO)[C@@H](O)[C@H]2O)c(=O)[nH]1 = < 4.70

stdin: Fill blank: measured pEC50 of the compound Cc1ccc(/N=N/C2=CN(C)CCC2)cc1 is ____.
stdout: < 4.15

stdin: Fill blank: measured pEC50 of the compound CN1C=C(/N=N/c2cccc(C(F)(F)F)c2)CCC1 is ____.
stdout: < 4.00

----------
assay: Cytotoxicity against mock-infected human MT4 cells assessed as reduction in cell viability after 96 hrs by MTT assay; format: cell-based
assay_metric: CC50 at 96 h

Consider the worked cases shown below.
CN1C=C(/N=N/c2c(F)c(F)c(F)c(F)c2F)CCC1 = > 100 µM
CN1C=C(/N=N/c2ccccc2)CCC1 = > 100 µM

Next compound, CC50 at 96 h to be filled in.
stdin: Fill blank: measured CC50 at 96 h of the compound CN1CCC/C1=C\N=N\c1ccc(Cl)cc1 is ____.
stdout: > 100 µM

----------
test: Cytotoxicity against mock-infected BHK cells assessed as reduction in cell viability after 96 hrs by MTT assay; assay type: cell-based, Mesocricetus auratus; details: hamster
assay_metric: CC50 at 96 h (µM)
Respond numerically; units are µM and should not be typed.

Consider the worked cases shown below.
Brc1ccc(/N=N\C2=C3CCCCN3CCC2)cc1 = 62
COc1ccc(/N=N/C=C2\CCCN2C)cc1 = 77
Fc1ccc(N2CCN(/C=C/N=N/c3ccccc3)CC2)cc1 = 50
C(=C\N1CCCC1)/N=N/c1ccccc1 = 82
COc1ccc(N2CCN(/C=C/N=N/c3ccccc3)CC2)cc1 = 46
CN1C=C(/N=N/c2cccc(Cl)c2)CCC1 = 85
Fc1ccccc1N1CCN(/C=C/N=N/c2ccccc2)CC1 = 62
CN1CCC/C1=C\N=N\c1ccc(F)cc1 = 80

Next compound, CC50 at 96 h to be filled in.
stdin: Fill blank: measured CC50 at 96 h of the compound c1ccc2c(/N=N\C3=C4CCCCN4CCC3)cccc2c1 is ____.
stdout: 20

----------
system: Coxsackievirus B2; experiment: Antiviral activity against CVB2 infected in Vero76 cells assessed as reduction in virus plaque formation after 4 days by MTT assay; assay type: functional, organism-based; settings: Enterovirus B, Vero 76, 96 h
Overview of reported pEC50 across a group of molecules:
Scale for pEC50: -log10 of concentration given in mol/L; no unit attached.

Consider the worked cases shown below.
FC(F)(F)c1cc(/N=N\C2=C3CCCN3CCC2)ccc1Cl = 5.05
CN1CCC/C1=C\N=N\c1ccc(Br)cc1 = 4.44
Clc1ccc(/N=N\C2=C3CCCN3CCC2)cc1 = 5.00
CN1C=C(/N=N/c2cccc(Br)c2)CCC1 = 4.57

stdin: # query: pEC50 | item Clc1ccc(/N=N\C2=C3CCCN3CCC2)cc1Cl | system: Coxsackievirus B2
stdout: 4.52

----------
assay: Cytotoxicity against mock-infected BHK cells assessed as reduction in cell viability after 96 hrs by MTT assay; assay type: cell-based, Mesocricetus auratus; details: hamster
Overview of reported CC50 at 96 h across a group of molecules:

Consider the worked cases shown below.
Cc1ccc(/N=N/C2=CN(C)CCC2)cc1 = > 100 µM
Clc1ccc(/N=N/C=C/N2CCCC2)cc1 = > 100 µM
c1ccc2c(N=NC3=C4CCCN4CCC3)nncc2c1 = > 100 µM
CN1CCC/C1=C\N=N\c1ccc(Br)cc1 = > 100 µM
CN1C=C(/N=N/c2ccc([N+](=O)[O-])cc2)CCC1 = > 100 µM

Next molecule, CC50 at 96 h to be filled in.
stdin: Fill blank: measured CC50 at 96 h of the molecule CN1C=C(/N=N/c2ccccc2Cl)CCC1 is ____.
stdout: > 100 µM

----------
experiment: Cytotoxicity against mock-infected BHK cells assessed as reduction in cell viability after 96 hrs by MTT assay; type: cell-based, Mesocricetus auratus; conditions: hamster
assay_metric: CC50 at 96 h (µM)
Respond numerically; units are µM and should not be typed.

Consider the worked cases shown below.
CN1CCC/C1=C\N=N\c1cccc(Br)c1 = 41
Clc1ccc2c(/N=N/C3=C4CCCCN4CCC3)ccnc2c1 = 48
CN1C=C(/N=N/c2cccc([N+](=O)[O-])c2)CCC1 = 95
FC(F)(F)c1cc(/N=N/C2=CN(Cc3ccccc3)CCC2)ccc1Cl = 32
O=[N+]([O-])c1cccc(/N=N\C2=C3CCCN3CCC2)c1 = 95

stdin: Fill blank: measured CC50 at 96 h of the compound FC(F)(F)c1cc(/N=N\C2=C3CCCCN3CCC2)cc(C(F)(F)F)c1 is ____.
stdout: 19

stdin: Fill blank: measured CC50 at 96 h of the compound Clc1ccc(/N=N\C2=C3CCCCN3CCC2)cc1 is ____.
stdout: 69

stdin: Fill blank: measured CC50 at 96 h of the compound C(=C\N1CCN(c2ccccn2)CC1)/N=N/c1ccccc1 is ____.
stdout: 75

stdin: Fill blank: measured CC50 at 96 h of the compound FC(F)(F)c1cc(/N=N\C2=C3CCCN3CCC2)ccc1Cl is ____.
stdout: 51

stdin: Fill blank: measured CC50 at 96 h of the compound FC(F)(F)c1cc(/N=N\C2=C3CCCCN3CCC2)ccc1Cl is ____.
stdout: 41

stdin: Fill blank: measured CC50 at 96 h of the compound Clc1ccc(N2CCN(/C=C/N=N/c3ccccc3)CC2)cc1 is ____.
stdout: 29

stdin: Fill blank: measured CC50 at 96 h of the compound CN1C=C(/N=N/c2ccc(Cl)c(Cl)c2)CCC1 is ____.
stdout: 38

stdin: Fill blank: measured CC50 at 96 h of the compound CN1CCC/C1=C\N=N\c1ccc(Cl)c(Cl)c1 is ____.
stdout: 23
